Kindly state IC50 for each of the entries shown.
Assay: Cytotoxicity against human MCF-10A cells assessed as reduction in cell viability incubated for 24 to 48 hrs by CCK-8 assay
Type: toxicity, cell-based
Value and unit, in that order.

Consider the compound Nc1nc2cc(-c3ccc4ncc(N5C[C@@H]6OCCO[C@@H]6C5)nc4c3)ccc2o1 and give its measured IC50.
54 µM

// repeat for Nc1nc2cc(-c3ccc4ncc(C(=O)N5CCOCC5)n4c3)ccc2o1 and report
34.1 µM

----------
Assay: AUC (0 to infinity) in Sprague-Dawley rat at 5 mg/kg, iv measured upto 24 hrs by LC-MS analysis
Format: ADME, organism-based
Settings: in vivo
experimental endpoint: AUC(0-inf) (ng·h/mL)
State the answer as a number, implicitly in ng·h/mL.

Consider the compound Nc1nc2cc(-c3ccc4ncc(C(=O)N5CCOCC5)n4c3)ccc2o1 and give its measured AUC(0-inf).
7520

// repeat for Nc1nc2cc(-c3ccc4ncc(N5C[C@@H]6OCCO[C@@H]6C5)nc4c3)ccc2o1 and report
8250
